# System: CHRC5 cell line
# test.details: Reversal of sensitivity of multidrug resistant chinese hamster ovary cell line CHRC/5 expressed as concentration that restores 50% of cytotoxic activity of 5 ug/mL toward doxorubicin
# Assay type: functional, cell-based
# measurement.parameters: Cricetulus griseus, read-out: EC50
Please respond with reported log10(EC50) for every item in the list.
Scale: log10; quantity: EC50; unit before log: µM

Worked examples, 6 molecules total:
CCc1cc(OCCCN(C)Cc2ccc(OC)c(OC)c2)ccc1NC(=O)c1cccc2c(O)c3cccc(F)c3nc12 : -1.05
COc1ccc(CCN(C)CCOc2ccc(NC(=O)c3cccn4c(=O)c5ccccc5nc34)cc2)cc1OC : -0.68
COc1cc(OCCCN(C)Cc2ccc(OC)c(OC)c2)ccc1NC(=O)c1cccc2c(O)c3cccc(C)c3nc12 : -1.40
CN(CCOc1ccc(NC(=O)c2cccc3c(=O)c4ccccc4[nH]c23)cc1)Cc1ccc(F)cc1 : -0.03
COc1ccc(CN(C)CCc2ccc(NC(=O)c3cccc4c(O)c5cccc(F)c5nc34)c(C)c2)cc1OC : -1.06
CN(CCOc1ccc(NC(=O)c2cccc3c(=O)c4ccccc4[nH]c23)cc1)Cc1ccccc1 : -0.14

# batch size: 4; output log10(EC50) per entry
1. COc1ccc(CN(C)CCc2ccc(NC(=O)c3cccc4c(O)c5cccc([N+](=O)[O-])c5nc34)cc2)cc1OC
2. COc1cc(CCCN(C)Cc2ccc(OC)c(OC)c2)ccc1NC(=O)c1cccc2c(O)c3cccc(F)c3nc12
3. COc1ccc(CN(C)CCCCc2ccc(NC(=O)c3cccc4c(O)c5cccc(N)c5nc34)cc2)cc1OC
4. COc1ccc(CN(C)CCCOc2ccc(NC(=O)c3cccc4c(O)c5cccc(C)c5nc34)c(C)c2)cc1OC

1. -0.71
2. -1.37
3. -0.75
4. -1.03
